# measurementTarget: DEK20 (phosphoglycerate dehydrogenase1, PGDH1) (Zea mays, UniProt A0A1D6DW07, S282L)
# Construct: recombinant His-DEK20
# runDescription: microscale thermophoresis (MST)
pKd: −log10 of the molar value.

- compoundSmiles: "NC(=O)c1ccc[n+]([C@@H]2O[C@H](COP(=O)([O-])OP(=O)(O)OC[C@H]3O[C@@H](n4cnc5c(N)ncnc54)[C@H](O)[C@@H]3O)[C@@H](O)[C@H]2O)c1"
  pKd: 5.09

====

# measurementTarget: DEK20 (phosphoglycerate dehydrogenase1, PGDH1) (Zea mays, UniProt A0A1D6DW07)
# Construct: recombinant His-DEK20
# Sequence (A0A1D6DW07 1-387): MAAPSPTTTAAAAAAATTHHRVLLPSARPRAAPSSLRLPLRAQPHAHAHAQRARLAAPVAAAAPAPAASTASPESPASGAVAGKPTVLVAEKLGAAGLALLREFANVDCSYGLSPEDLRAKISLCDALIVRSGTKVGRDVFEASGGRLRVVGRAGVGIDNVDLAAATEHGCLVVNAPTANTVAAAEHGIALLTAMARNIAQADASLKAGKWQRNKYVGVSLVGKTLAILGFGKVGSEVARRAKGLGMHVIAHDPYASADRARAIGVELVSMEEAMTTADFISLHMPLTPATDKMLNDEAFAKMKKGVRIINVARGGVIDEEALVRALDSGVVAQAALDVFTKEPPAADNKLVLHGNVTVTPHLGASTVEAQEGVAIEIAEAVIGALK
# runDescription: microscale thermophoresis (MST)

- compoundSmiles: "NC(=O)c1ccc[n+]([C@@H]2O[C@H](COP(=O)([O-])OP(=O)(O)OC[C@H]3O[C@@H](n4cnc5c(N)ncnc54)[C@H](O)[C@@H]3O)[C@@H](O)[C@H]2O)c1"
  Kd / µM: 32.4
